test: NCI Yeast Anticancer Drug Screen. Data for the cln2 rad14 strain (AID 165);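 note: 0% = growth equal to vehicle treated cultures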; conditions: S. cerevisiae cln2 rad14 strain, at 50.0 µM, stronger effect = higher value
About 79,000 compounds went through this panel and 15% of them were active in at least one assay; those are over-represented in the sample as a whole.
Label true (1) when growth inhibition is at or above -10%; anything below gets false (0).

CC12CCC(C(Br)C1=O)C2(C)CBr (stereo not given) = true (1)
COC(=O)CCC1=C(C)C2=NC1=CC1=NC(=CC3=NC(=Cc4[nH]c(/c(=C\O)c4C)=C2)C(C=O)=C3C)C(C)=C1CCC(=O)OC = true (1)
O=C1OC(C2OC(=O)C(=O)C2C(=O)c2ccccc2Cl)C(C(=O)c2ccccc2Cl)C1=O (stereo not given) = true (1)
O=S(=O)([O-])[O-].O=c1[nH]cnc2[nH]ncc12.O=c1[nH]cnc2[nH]ncc12.[Cu+2] = false (0)
Cc1ccc(SCCCN(C)C)cc1 = true (1)
O=C1CC[C@@H](S(=O)(=O)c2ccccc2)[C@@H](/C=C/c2ccccc2)O1 = false (0)
CN1C(c2ccccc2)=C(C#N)C(=O)CC(c2ccc(Cl)cc2)N1C (stereo not given) = false (0)
CCOC(=O)c1c(N)n(-c2ccccc2)c(=O)n(-c2ccccc2)c1=O = true (1)
CC(C)NC(=O)C1C2C=CC(CC2)C1C(=O)NC(C)C (stereo not given) = true (1)
O=C(Nn1c(-c2ccccc2)nc2ccccc2c1=O)c1cccc([N+](=O)[O-])c1 = true (1)
COc1cc(N)c(OC)nn1 = false (0)
O=C1CC2(CCCc3sccc32)C(=O)N1 (stereo not given) = false (0)
CCOC(=O)c1c[nH]c2cc(Cl)ccc2c1=O = true (1)
Clc1ccc(NC2=NCCN=C(Nc3ccc(Cl)c(Cl)c3)SS2)cc1Cl = false (0)
Nc1cc2c(cc1Br)-c1ccc(Cl)cc1C2=O = false (0)
Cn1cnc2c(Cl)ncnc21 = false (0)
CCOC(=O)NC1C2CC3C(C2)C31 (stereo not given) = false (0)
FC(F)(F)c1cccc(C=NC23CC4CC(CC(C4)C2)C3)c1 = true (1)
CCCCC(CC)COCCC(=O)O (stereo not given) = false (0)
NC(=Nc1ccc(Br)cc1)/N=C(/N)Nc1cccc(S(=O)(=O)Nc2ncc(Cl)cn2)c1 = true (1)
CCC(C(N)C(=O)O)C(F)(F)F (stereo not given) = true (1)
CN(C)C/C=C(/c1ccc(Br)cc1)c1cccnc1 = false (0)
Nc1ccc(C(=O)NN2C(=O)C(Cl)C2c2ccccc2Cl)cc1 (stereo not given) = true (1)
O=C(Nc1ccc(C(=O)O)cc1)Nc1nccs1 = false (0)
O=c1c2c(sc3ccccc13)NCN(CCc1ccccc1)C2 = true (1)

Ref: PubChem BioAssay (NCI)
